Numbers sourced from the supplement of paper PMC12764529.

- experiment_notes: folding stability dG unfold (combined trypsin and chymotrypsin); higher = more stable
endpoint_label: folding stability dG unfold (kcal/mol)
Hi! Could you send only the number? It should be in kcal/mol, unit omitted.

Query :: Tell me the measured folding stability dG unfold of SAGMVKTVTLSREEVEKLVRELGRSPEEMTLEEFAERLEELFPGATVTVTVDTKTGTYTITITFPPSLASAG [r5_264_JUSTAS] , please.
Result :: 3.93

Query :: Tell me the measured folding stability dG unfold of SAGGMHLVIPFDSPEEALEAAKELKKEFEEKGYTVKVYYFPETGDIHVLVEMKTDGKTKYLNVTVPFPSAGG [r13_641_TrMRF] , please.
Result :: 1.73

Query :: Tell me the measured folding stability dG unfold of SAGLEVVKKLAEELGFPVEILRVEYDPETGELTFEAVARPKDGKTRRVRIRIRVPKESDEVEIELEYFDSAG [r5_929_TrMRF] , please.
Result :: 4.51

Query :: Tell me the measured folding stability dG unfold of SAGGSAGGSAGFHIDVEVHRDDEGYVKVRVKMYMYNPDPGEPMGSFEMTIWIPPEDADKLSAGGSAGGSAGG [r11_575_TrROS] , please.
Result :: 3.7

Query :: Tell me the measured folding stability dG unfold of SAGGSAGGSSPVKQVTEVKDPHSSLPLLRTTETLVLPNGEVVTKVKFIDTKTGKSTEEIFTIPSAGGSAGGS [r20_229_JUSTAS] , please.
Result :: 0.833

Query :: Tell me the measured folding stability dG unfold of SAGGPEVEAERFGDTVLVRITLLDPETGEPYEFLAIATRRPDGTVTVTIIHPDGRPSTIPLPLLPLASAGGS [r16_154_TrMRF] , please.
Result :: 2.26

Query :: Tell me the measured folding stability dG unfold of SMLEEVLERIEAMPPGSVVKVTLTFPDGTKRTETLKLSAEEVKEKLEKIKKENPDIKIEVKVEVYSTEEESA [r9_37_JUSTAS] , please.
Result :: 4.39

Query :: Tell me the measured folding stability dG unfold of SAGGKVKVKLSPEMIEALKKAGIKEGQKEVTIEVKLKDGSVYRVTITYDKKTNKITIKVEKVEKLPPSAGGS [r16_497_TrROS_Hall] , please.
Result :: 3.88

Query :: Tell me the measured folding stability dG unfold of SAGGSAGGSAKEVIIEIKVPPNMTEDEIKELLKKKFKGKKVEIKIEKKKNKNGTLIYKVEVKSAGGSAGGSA [r18_360_TrROS_Hall] , please.
Result :: 2.73

Query :: Tell me the measured folding stability dG unfold of SAGGSAGGSASMSTTEITVTELEEPGEGKRLVIETKSFTPEGKEIDSEKVEEEVREELGVKPSAGGSAGGSA [r18_332_JUSTAS] , please.
Result :: -0.585

Query :: Tell me the measured folding stability dG unfold of SAGGSAGGSAGKKLKPFKVVEVKEPVKEGDVIEVENEATGELYRFTVVNGEIKIEKVKLDSAGGSAGGSAGG [r11_94_TrROS_Hall] , please.
Result :: 0.365

Query :: Tell me the measured folding stability dG unfold of SAGGSAGGSAGSKTIEVVIPVKPNELTPEQAENLIKPFFPDAKIEVTPEGNYLVVKVEVSSAGGSAGGSAGG [r11_7_TrMRF] , please.
Result :: 0.366

Query :: Tell me the measured folding stability dG unfold of SAGGSAGGMTLKIKVAPGAVIRIYNKDGELIEEIEVEEGEEVEIEIELPEEDLENLRIEILPAPSAGGSAGG [r6_471_TrROS_Hall] , please.
Result :: 4.42

Query :: Tell me the measured folding stability dG unfold of SAGPTVRQETFGEKYRIEVEVSPDGTVKVKIVNENGEVTELEGKVEPGKPVVLPFPLDGHVVNVVVLPASAG [r5_237_TrMRF] , please.
Result :: 2.52

Query :: Tell me the measured folding stability dG unfold of SAGGSAGGSAGMGSTSTSTSITPTPEGRIVVDTTTTFTDPGGVPVGSTTTTTTLPPGAAASAGGSAGGSAGG [r11_898_JUSTAS] , please.
Result :: -0.279

Query :: Tell me the measured folding stability dG unfold of SAGGSAGGSAGGPPLKVTEVETHKHPNGHRYVTMTLRPPNGGPVTIMFDPNNGKIQIMISAGGSAGGSAGGS [r10_1218_TrROS] , please.
Result :: 2.94

---

- experiment_notes: folding stability dG unfold from trypsin proteolysis; higher = more stable
Respond with TRUE for folding stability dG unfold values of 2 kcal/mol and above, FALSE for values below.

Query :: Please indicate if the recorded folding stability dG unfold for SAGGSAGGSAGLTLRVKVKVELEYDPETNELTLRVEVEIELFPPPPLVVLSKEQLEELEESAGGSAGGSAGG [r17_454_TrROS_Hall] meets or exceeds 2 kcal/mol.
Result :: TRUE

Query :: Please indicate if the recorded folding stability dG unfold for SAGGMVEIELEVDGKKIKITYDKETGKITIEIDGKKIEVELPEEDKGKSKEELLKKALEKAKEELKKSAGGS [r16_215_TrROS_Hall] meets or exceeds 2 kcal/mol.
Result :: TRUE

Query :: Please indicate if the recorded folding stability dG unfold for SAGGSAGGSAGPIVYPYGKYLVVYNPETGALVVVELDPDGKVKKVVVFGKDGPLVELDDASAGGSAGGSAGG [r17_385_TrMRF] meets or exceeds 2 kcal/mol.
Result :: TRUE

Query :: Please indicate if the recorded folding stability dG unfold for SQNGGPKRKVTITIIIVIPPGQRNPDGKPRPSVEELARYLQKELQEQFPGNKDVKIDITIIPLGDPEQIKSA [r9_329_TrROS] meets or exceeds 2 kcal/mol.
Result :: TRUE

Query :: Please indicate if the recorded folding stability dG unfold for SAGGSAGGSAGGMKIPPSLLTEVKESIVPTPEGSTKITTVTAKVPGTGEVVTYTLTTPVASAGGSAGGSAGG [r7_348_JUSTAS] meets or exceeds 2 kcal/mol.
Result :: FALSE

Query :: Please indicate if the recorded folding stability dG unfold for SKKKKTIVIELTKDELKELLKKLKVEEGDEVEIFVRNKDGSIYKLTIKNGKITKIEPFKGVPNKVVIVIKSA [r9_849_TrROS_Hall] meets or exceeds 2 kcal/mol.
Result :: FALSE

Query :: Please indicate if the recorded folding stability dG unfold for SAGGSAGGPVITFPWNDIPELLERARENGDPEYYIRVSPDDPGNFTIMPPEEAEENGMPVIPLDSAGGSAGG [r6_710_TrROS] meets or exceeds 2 kcal/mol.
Result :: FALSE

Query :: Please indicate if the recorded folding stability dG unfold for SAGGSAGGSAGGMEVYRNPETGTLVFLFELEDGSYVAVTINPDGSVEVRVFDKDGRWVPSAGGSAGGSAGGS [r10_299_TrROS_Hall] meets or exceeds 2 kcal/mol.
Result :: TRUE

---

Assign folding stability dG unfold to each entry below.
- experiment_notes: folding stability dG unfold from chymotrypsin proteolysis; higher = more stable
Hi! Could you send only the number? It should be in kcal/mol, unit omitted.

Query :: Tell me the measured folding stability dG unfold of SAGGSEPEPLRVSEITDIKESVLPNGTLKATVTLKLPEKDEEVEIEVEASSEEEIEEAIEEIVKLESAGGSA [r2_248_JUSTAS] , please.
Result :: 0.0425

Query :: Tell me the measured folding stability dG unfold of SAGGELVLLIRVTPERIEIRLLPKEALEGLELEAPPGERLLLVELEPPPPEEEEREERRREEREELEESAGG [r13_74_TrROS_Hall] , please.
Result :: 1.4

Query :: Tell me the measured folding stability dG unfold of SMKISSFTLAPGGEAVIELTFESGETRRVRLTGLTSKAEVEAEAKRLQEELEKGNPRPIKTVTVSPAPPASA [r9_1135_JUSTAS] , please.
Result :: 0.768

Query :: Tell me the measured folding stability dG unfold of SAGGSMTMTVEIHYPDGTVETRTVPYAPDDPAAAIAAVKAEVEARGGEVLAVETRDGVVTVKALVPPSAGGS [r16_662_JUSTAS] , please.
Result :: 3.01

Query :: Tell me the measured folding stability dG unfold of SLEEFLASEEAKKRLEALKPPPPVETIRIKVKAKSVEEALKAIRELFPGVEVVKIKEVRPDGYLEVEVRRSA [r9_723_TrROS_Hall] , please.
Result :: 2.37

Query :: Tell me the measured folding stability dG unfold of SAGGSAGGSATVTVTETNEDGEETTTEVEVFEVKPPPAPVLKVEAVIDPETNELVDVKVELFASAGGSAGGS [r12_539_TrROS_Hall] , please.
Result :: 0.201

Query :: Tell me the measured folding stability dG unfold of SAGGPRVEVEEVELEGDYLVVRARVEVPLDDGTYEFELTLVLPVPPPPLPLPPVDPRFPRAPDDDLVSAGGS [r8_234_TrMRF] , please.
Result :: 1.33

Query :: Tell me the measured folding stability dG unfold of SAGGSAGGSAGGMILVQDKKTKKWYEIKPGESLENLEFPEGVKEVRIYVFNEDGELVELDSAGGSAGGSAGG [r7_763_TrROS_Hall] , please.
Result :: 2.45

Query :: Tell me the measured folding stability dG unfold of SAGGSAGGSAKEVIIEIKVPPNMTEDEIKELLKKKFKGKKVEIKIEKKKNKNGTLIYKVEVKSAGGSAGGSA [r18_360_TrROS_Hall] , please.
Result :: 3.13

Query :: Tell me the measured folding stability dG unfold of SAGGSAGGSMKVSPASRSEFDGSRVITITVTKEGTGTTTDITIPFSPDEPDVDEVAKAIAESLSAGGSAGGS [r12_415_JUSTAS] , please.
Result :: 1.12

Query :: Tell me the measured folding stability dG unfold of SAGGSAGGEVKIEVNKEKGYLLITVPKEEAEEIAKALKEKFGIKEVKIEVDEETDEVHILVKLESAGGSAGG [r6_661_TrROS_Hall] , please.
Result :: 2.98

Query :: Tell me the measured folding stability dG unfold of SAGGETKTLTIKFYDPKTGKLVAEVTITYTPEKVTVTIRFADGTTETVEMTAEELLAKLPPGAVIVPSAGGS [r16_543_TrROS_Hall] , please.
Result :: 4.46

Query :: Tell me the measured folding stability dG unfold of SAGGSAGGSAKIIIIEEDPEEAIRRVEELFGPGARIEPVRVVRVGDKVYVAVGIDIPASLASAGGSAGGSAG [r3_87_TrMRF] , please.
Result :: 0.9
